system: U-251; assay: NCI tumour cell line growth inhibition, 48 h
The source made the active and inactive calls. No stated cut-off is given here; in the data, active = GI50 up to about 1.1 µM and inactive = higher.
Measured property: GI50

> print(dat)
                                   molecule  measured.property               result
1  CC(C)NC(=O)OCc1c(COC(=O)NC(C)C)c(-c2cc[n+](COC(=O)C3CCCCC3)cc2)n2c1CCC2               GI50  > 100 µM (inactive)
2  CC1=CC(=O)CCC2(C)C1CC[C@@H]2OC=O (stereo not given in full)               GI50  > 100 µM (inactive)
3        COC(=O)c1cc2c3ccccc3n(C(C)=O)c2cn1               GI50  > 100 µM (inactive)
4  NS(=O)(=O)c1ccc(NC(=O)COC(=O)c2cccc3c(=O)c4ccccc4[nH]c23)cc1               GI50   14.4 µM (inactive)
5              CCC(=O)N1NC(=O)C(CC)(CC)C1=O               GI50  > 100 µM (inactive)

###

tested on: SNB-75; assay: NCI tumour cell line growth inhibition, 48 h
The source made the active and inactive calls. Cut-off read from the data, not from the text of the source: active = GI50 up to about 1.1 µM and inactive = higher.
Measured GI50 of individual entries
Measured property: GI50

> print(dat)
                                    compound  measured.property               result
 1     COc1cc(OC)c(OC)cc1/C=C/c1cnnc2ccccc12               GI50   2.85 µM (inactive)
 2  CC1CC2CCCC(=O)C2=C(O)O1 (stereo unspecified)               GI50  > 100 µM (inactive)
 3                          CN1CCN(CCCBr)CC1               GI50  > 100 µM (inactive)
 4  CC(=O)NNc1nc(-c2ccc([N+](=O)[O-])cc2)c(C#N)c(=O)n1C               GI50   18.9 µM (inactive)
 5             CNC(=O)CN(C)C(=O)CCC(=O)N(C)C               GI50  > 100 µM (inactive)
 6   CC(C)n1c2c(c3ccccc3c1=O)C(=O)c1ccccc1-2               GI50  > 100 µM (inactive)
 7  N#CC(C(=O)/C(=N/Nc1nc(S)nn1N)C(C#N)c1ccccc1)c1ccccc1 (stereo unspecified)               GI50  > 100 µM (inactive)
 8  [N-]=[N+]=C(C(=O)CN1CCCC1=O)S(=O)(=O)c1ccccc1               GI50  > 100 µM (inactive)
 9  CN(C)c1nc(NC23CC4CC(CC(C4)C2)C3)nc(N(C)C)n1               GI50   7.35 µM (inactive)
10  CC(=O)Nc1c(C)cc2c(nc3n2CCC3O)c1[N+](=O)[O-] (stereo unspecified)               GI50  > 100 µM (inactive)
11  Cc1ccc(Nc2nc3c(=O)n(C)c(=O)n(C)c3nc2Nc2ccc(C)cc2)cc1               GI50   15.4 µM (inactive)

###

test system: M14; test: NCI tumour cell line growth inhibition, 48 h
Active and inactive are the calls of the source. Rule as the data show it: active = GI50 up to about 1.1 µM and inactive = higher.
Measured property: GI50

> print(dat)
                                   compound  measured.property               result
1                    Nc1ncnc2c1ccn2C/C=C\CO               GI50  > 100 µM (inactive)
2  O=C(O)C1=NN(c2ccc(S(=O)(=O)O)cc2)C2(C1)C(Cl)C(=O)N2c1nc2ccccc2s1 (stereo unspecified)               GI50   15.7 µM (inactive)
3  O=C(O)c1ccc2c(c1)CC1(C2)Cc2cc3c(cc2C1=O)CCC3 (stereo unspecified)               GI50  > 100 µM (inactive)
4                      CC(=O)Nc1oc(C)nc1C#N               GI50  > 100 µM (inactive)
5  CC1C(c2ccccc2O)c2cc3c(cc2OC1N1CCCC1)OCO3 (stereo unspecified)               GI50   17.9 µM (inactive)
6                   CCSc1cc(=O)n(C)c(=O)n1C               GI50  > 100 µM (inactive)

###

Measured GI50 of individual entries
tested on: RXF 393; test: NCI tumour cell line growth inhibition, 48 h
Calls of active or inactive are those of the source. Rule as the data show it: active = GI50 up to about 1.1 µM and inactive = higher.
Measured property: GI50

> print(dat)
                                    compound               result
 1  N#CC1(C#N)C2CCCCC23OC(=N)C1(C#N)C(c1ccco1)O3 (configuration not stated)   21.7 µM (inactive)
 2  CC1CCCc2c(C#N)c(N)nc(-c3ccc(Cl)cc3)c21 (configuration not stated)   6.87 µM (inactive)
 3       COc1ccc(CCCN2c3ccccc3Sc3ccccc32)cc1  > 100 µM (inactive)
 4                          CN1CCN(CCCBr)CC1  > 100 µM (inactive)
 5       COc1cc2cc[n+](C)c(Cc3ccccc3)c2cc1OC  > 100 µM (inactive)
 6  CC(=O)NNc1nc(-c2ccc([N+](=O)[O-])cc2)c(C#N)c(=O)n1C     57 µM (inactive)
 7  COc1ccc(C(=O)Nc2ccn(CCOC(=O)c3ccc(OC)cc3)c(=O)n2)cc1   20.1 µM (inactive)
 8  CC(=O)C1C(=O)NC(=O)C1=O (configuration not stated)  > 100 µM (inactive)
 9  O=S(=O)(O)c1ccc2c(/N=N/c3ccc(Cl)cc3)c(O)ccc2c1  > 100 µM (inactive)
10                O=C(O)CCSC(=S)Nc1cccc(F)c1   30.5 µM (inactive)
11                    Nc1ncnc2c1ccn2C/C=C\CO  > 100 µM (inactive)
12  O=C(Nc1c(-c2nc3ccccc3[nH]2)sc(=S)n1-c1ccccc1)c1ccccc1  > 100 µM (inactive)

###

tested on: 786-0; experiment: NCI tumour cell line growth inhibition, 48 h
Activity calls are given as the source filed them. Rule as the data show it: active = GI50 up to about 1.1 µM and inactive = higher.
Measured GI50 of individual entries
Measured property: GI50

> print(dat)
                                    molecule               result
 1        [O-][N+](CCO)(CCO)c1ncnc2[nH]cnc12  > 100 µM (inactive)
 2  Cc1ccc(C2(c3ccc(C)cc3)SC(=C(C#N)C#N)c3ccccc32)cc1  > 100 µM (inactive)
 3  N#CC1=C(Nc2ccccc2)SC=C(c2ccccc2)N=C1NCc1ccccc1  > 100 µM (inactive)
 4  O=C(O)C1CCc2ccc3ccccc3c2C1c1cccc2ccccc12 (stereo not given)   18.2 µM (inactive)
 5  Cc1cccc(O)c1-c1nnc(CCCCCCCCc2nnc(-c3c(C)cccc3O)n2N)n1N   2.67 µM (inactive)
 6            N#Cc1ccc(-c2nc3c(N)ncnc3o2)cc1   63.8 µM (inactive)
 7  Nc1ccn(C2OC(COP(=O)(O)OCC3OC(n4cc(F)c(=O)[nH]c4=O)CC3O)C(O)C2O)c(=O)n1 (stereo not given)   1.33 µM (inactive)
 8      CCCCCCN1C(=O)CC(=O)N(CCCCCC)S1(=O)=O   18.5 µM (inactive)
 9              O=c1ccc(=O)n(-c2ccccc2)[nH]1  > 100 µM (inactive)
10  COc1cc([C@H]2CC(=O)C[C@@H](c3cc(OC)c(OC)c(OC)c3)C23C(=O)c2ccccc2C3=O)cc(OC)c1OC  > 100 µM (inactive)

###

test system: M19-MEL; experiment: NCI tumour cell line growth inhibition, 48 h
Calls of active or inactive are those of the source. Cut-off read from the data, not from the text of the source: active = GI50 up to about 1.1 µM and inactive = higher.
Measured GI50 of individual entries
Measured property: GI50

Molecule	Measured property	Result
CC(C(=O)c1ccc(Cl)cc1)/C(=N/NC(=O)NN)C(=O)Nc1cccc(C(F)(F)F)c1 (configuration not stated)	GI50	> 100 µM (inactive)
COc1ccc(C(=O)Nc2ccn(CCOC(=O)c3ccc(OC)cc3)c(=O)n2)cc1	GI50	> 100 µM (inactive)
O=C(O)CCSC(=S)Nc1cccc(F)c1	GI50	28.2 µM (inactive)
CC1=C(C(=O)Nc2ccc([N+](=O)[O-])cc2)C(c2ccco2)C(C(=O)Nc2ccc([N+](=O)[O-])cc2)=C(C)N1	GI50	13.1 µM (inactive)
O=C(Nc1c(-c2nc3ccccc3[nH]2)sc(=S)n1-c1ccccc1)c1ccccc1	GI50	> 100 µM (inactive)
CC(=O)O[C@]12CCCCCCC1C1(O)C(O)CCC[C@H]12 (some centres not stated)	GI50	> 100 µM (inactive)
O=C1N2Cc3c4ccc5c3CN3C(=O)N6Cc7c(ccc(c7CN1C6(c1ccccc1)C23c1ccccc1)OCCOCCOc1cc(Br)c(Br)cc1OCCOCCO4)OCCOCCOc1cc(Br)c(Br)cc1OCCOCCO5 (configuration not stated)	GI50	> 100 µM (inactive)

Cited source: ChEMBL document CHEMBL1201862
